# TARGET SYSTEM: T1, human PD1 human Fc tagged recombinant protein (human, UniProt Q15116 25-170)
# T1 construct: also called human PD1-Fc; hu PD1; not shown: human Fc tag
# T1 sequence (Q15116 25-170 limits assumed): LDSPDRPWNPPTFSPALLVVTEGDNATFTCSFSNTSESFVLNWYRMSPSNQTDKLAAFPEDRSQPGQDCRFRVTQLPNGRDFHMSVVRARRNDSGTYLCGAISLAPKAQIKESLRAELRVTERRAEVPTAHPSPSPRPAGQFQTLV
# ASSAY NAME: direct titration ELISA, IgG1 null on coated PD1-Fc (FIG. 3A)
TEST READOUT: binding result

* MAB04 IgG1 null (antibody, V domains shown, Human IgG1 null format (L234A, L235A, G237A) with human C kappa; only variable domains are tied to the clone) VH: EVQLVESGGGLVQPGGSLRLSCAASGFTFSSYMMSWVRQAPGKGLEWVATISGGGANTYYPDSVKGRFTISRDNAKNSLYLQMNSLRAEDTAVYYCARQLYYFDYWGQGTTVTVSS VL: DIQMTQSPSSLSASVGDRVTITCLASQGIGPWLSWYQQKPGKAPKLLIYTATSLADGVPSRFSGSGSGTDFTLTISSLQPEDFATYYCQQVSVTPFTFGGGTKVEIK | binds
* MAB02 IgG1 null (antibody, V domains shown, Human IgG1 null format (L234A, L235A, G237A) with human C kappa; only variable domains are tied to the clone) VH: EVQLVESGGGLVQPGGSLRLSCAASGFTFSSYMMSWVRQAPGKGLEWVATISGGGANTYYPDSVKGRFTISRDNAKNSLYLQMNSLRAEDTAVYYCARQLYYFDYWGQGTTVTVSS VL: DIQMTQSPSSLSASVGDRVTITCLASQPLGIWLSWYQQKPGKAPKLLIYTATSLADGVPSRFSGSGSGTDFTLTISSLQPEDFATYYCQQVAELPFGFGGGTKVEIK | binds
* MAB01 IgG1 null (antibody, V domains shown, Human IgG1 null format (L234A, L235A, G237A) with human C kappa; only variable domains are tied to the clone) VH: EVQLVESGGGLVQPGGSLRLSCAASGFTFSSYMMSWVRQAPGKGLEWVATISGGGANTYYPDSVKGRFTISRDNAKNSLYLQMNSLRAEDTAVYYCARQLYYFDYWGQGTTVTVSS VL: DIQMTQSPSSLSASVGDRVTITCLASQGIGPWLSWYQQKPGKAPKLLIYTATSLADGVPSRFSGSGSGTDFTLTISSLQPEDFATYYCQQVAELPFGFGGGTKVEIK | binds
